The reported measurements were obtained from ChEMBL document CHEMBL3046898.

- System: T47D
- Procedure Text: Cytotoxicity against human T47D assessed as cell growth at 10 uM after 48 hrs by SRB assay
- Format: functional
- Stated Conditions: read-out: Activity
Below, each entry is listed alongside its reported growth at 10 µM.
// return numeric value only (unit: %, not printed)

Would you please look over these solved cases?
Compound	growth at 10 µM [%]
CCN1C(=O)CS/C1=N\NC(=O)C(C)c1ccc(-c2ccccc2)c(F)c1 (stereo not given)	55.2
CC(C(=O)NN1C(=O)CSC1c1ccc(Cl)cc1)c1ccc(-c2ccccc2)c(F)c1 (stereo not given)	50.9
COc1ccc(/C=N/NC(=O)C(C)c2ccc(-c3ccccc3)c(F)c2)cc1 (stereo not given)	57.4

[in] Query: growth at 10 µM; subject: CC(C(=O)N/N=C/c1c(F)cccc1F)c1ccc(-c2ccccc2)c(F)c1 (stereo not given)
[out] 55.3

[in] What do we get for CC(C(=O)NN1C(=O)CSC1c1ccc(C(F)(F)F)cc1)c1ccc(-c2ccccc2)c(F)c1 (stereo not given) ?
[out] 33.4

====

- System: Micrococcus luteus
- Procedure Text: Antibacterial activity against Micrococcus luteus at 6.25 to 200 ug/ml after 24 hrs by microwell dilution method
- Type: functional, organism-based
Active and inactive are the calls of the source. The calls are words filed in the database; no cut-off is given here.
Measured Parameter: Activity

Example entries and their recorded answers appear below.
Molecule	Activity
CC(C(=O)NNC(=S)NC1CCCCC1)c1ccc(-c2ccccc2)c(F)c1 (centres undefined)	inactive
C=CCN1C(=O)CS/C1=N\NC(=O)C(C)c1ccc(-c2ccccc2)c(F)c1 (centres undefined)	inactive
CC(C(=O)NN1C(=O)CSC1c1ccc(F)cc1)c1ccc(-c2ccccc2)c(F)c1 (centres undefined)	inactive
CC(C(=O)N/N=C1\SCC(=O)N1Cc1ccccc1)c1ccc(-c2ccccc2)c(F)c1 (centres undefined)	inactive
Cc1cc(C)c(/C=N/NC(=O)C(C)c2ccc(-c3ccccc3)c(F)c2)c(C)c1 (centres undefined)	inactive
CC(C(=O)N/N=C/c1cccc(F)c1)c1ccc(-c2ccccc2)c(F)c1 (centres undefined)	inactive
CC(C(=O)N/N=C/c1ccc([N+](=O)[O-])cc1)c1ccc(-c2ccccc2)c(F)c1 (centres undefined)	inactive
CC(C(=O)NN1C(=O)CSC1c1ccccc1Cl)c1ccc(-c2ccccc2)c(F)c1 (centres undefined)	inactive

Let us examine a further case.
[in] If you can, please state the reported Activity value of CC(C(=O)NN1C(=O)CSC1c1c(F)cccc1F)c1ccc(-c2ccccc2)c(F)c1 (centres undefined) .
[out] inactive
